Assay: growth inhibition, single agents and combos, CRL2098, cell-based, BGB or cisplatin IC20 combos, synergistic combos for chromothripsis tumors (AID 1671454);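 further: cells exposed for 96 h before readout; 0% = vehicle DMSO and 100% = killing by high DMSO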
Conditions: CRL2098 osteosarcoma cells, drug combinations, at 0.5 µM, stronger effect = higher value
Calls of active or inactive are those of the source. No stated cut-off is given here; in the data, active means inhibition above about 80%; inactive means the rest.
Attribute: inhibition
QUANTITY_NAME: inhibition

• CC(=O)Nc1nc(C)c(-c2ccc(Cl)c(S(=O)(=O)NCCO)c2)s1 = 17% (inactive)
• NC1CCC(N[C@@H]2C[C@H]2c2ccccc2)CC1 (stereo partly specified) = -30% (inactive)
• c1cc(Nc2cc(C3CC3)[nH]n2)nc(Nc2ccc3nc[nH]c3c2)n1 = 28.9% (inactive)
• Nc1nc2n[nH]nc2c(=O)[nH]1 = -27.1% (inactive)
• N=C1CCCN1Cc1[nH]c(=O)[nH]c(=O)c1Cl = 2.27% (inactive)
• CC(=O)[C@]1(N)Cc2c(O)c3c(c(O)c2[C@@H](O[C@H]2C[C@H](O)[C@H](O)CO2)C1)C(=O)c1ccccc1C3=O = -28.4% (inactive)
• NC(=O)c1nc(F)c[nH]c1=O = -7.02% (inactive)
• O=C(O)[C@H](Cc1c[nH]c2ccccc12)N1C(=O)c2ccccc2C1=O = -82% (inactive)
• COc1ccc(-n2c(SCCCN3C(=O)c4cccc5cccc(c45)C3=O)nnc2-c2ccncc2)cc1 = -27.6% (inactive)
• O=c1[nH]cnc2ccccc12 = -61.6% (inactive)
• C=C1[C@H](CO)[C@@H](O)C[C@@H]1n1cnc2c(=O)[nH]c(N)nc21 = -23% (inactive)

---

Attribute: z-score
Experiment: MELAS cybrid and Rieske KO viability enhancers – cell-based, MELAS cybrids, Rieske KO mouse fibroblasts, CellTiter-Glo, primary screen (AID 1508586);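 further: z relative to plate mean and SD of compound and empty wells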
Settings: Rieske KO mouse fibroblast survival, low glucose, CellTiter-Glo 72 h
QUANTITY_NAME: z-score

* Cc1cnc(Nc2ccc(N3CCN(C)CC3)cc2)nc1Nc1cccc(S(=O)(=O)NC(C)(C)C)c1 | -3.35
* Nc1cc(C(F)(F)F)c(-c2cc(N3CCOCC3)nc(N3CCOCC3)n2)cn1 | -2.21
* CC(C)(C)[C@]1(O)CCN2C[C@H]3c4ccccc4CCc4cccc(c43)[C@@H]2C1 | -0.23
* Cc1cc(Cl)ccc1OCCCC(=O)NO | 0.796
* CN1CCN(c2nc(C3=C(c4c[nH]c5ccccc45)C(=O)NC3=O)c3ccccc3n2)CC1 | 0.177

---

Experiment: viability loss in pontine glioma line – cell-based, SU-DIPG-XVII, MIPE5.0, CellTiter-Glo, qHTS, dose response (AID 1347060);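 on AC50: cells exposed to compound for 48 hours before viability readout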
Settings: CellTiter-Glo ATP luminescence
Records with an inconclusive call do not appear. Active and inactive are the calls of the source. The limit is not given here; nearly all actives have AC50 up to about 26 µM.
Outcome codes: Yes = active, No = inactive

- COC(=O)c1ccc2c(C(=Nc3ccc(N(C)C(=O)CN4CCN(C)CC4)cc3)c3ccccc3)c(O)[nH]c2c1: Yes
- CCCCOc1ccc(C(=O)Nc2ccc(F)cc2F)cc1: No
- CCOC(=N)c1nc2ccc3ncnc(Nc4cc(F)c(F)cc4Cl)c3c2s1: Yes
- COc1cc2c(NC3CCN(C(C)C)CC3)nc(C3CCCCC3)nc2cc1OCCCN1CCCC1: Yes
- Cn1cnc(=N)c2[nH]cnc21: No
- CN[C@H]1CN(c2ccc3c(=O)c(C(=O)O)cn(-c4nccs4)c3n2)C[C@@H]1OC: Yes

---

Test: viability loss in pontine glioma line – cell-based, JHH-DIPG-1, MIPE4.0, CellTiter-Glo, qHTS, dose response (AID 1347062);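 on AC50: cells exposed to compound for two days before readout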
Conditions: JHH-DIPG-1 viability, CellTiter-Glo ATP luminescence
Records with an inconclusive call do not appear. Calls of active or inactive are those of the source. The limit is not given here; nearly all actives have AC50 up to about 27 µM.
Outcome codes: 1 (yes) (active), 0 (no) (inactive)

- C[C@]12CCC3=C4CCC(=O)C=C4CC[C@H]3[C@@H]1CC[C@@]2(O)CC#N: 0 (no)
- O=C(O)c1ccc(O)c2ncc(N3CCOCC3)cc12: 0 (no)
- CC(NCc1ccc2c(c1)nc(NC(=O)c1ccc(-c3cn[nH]c3)s1)n2CC(C)(C)O)C(C)(C)C (stereo not given): 1 (yes)
- CC(/C=C/C(=O)NO)=C\[C@@H](C)C(=O)c1ccc(N(C)C)cc1: 1 (yes)
- NC(CO)(CO)CCc1ccc(Sc2cccc(OCc3ccccc3)c2)cc1Cl: 1 (yes)
- CNC1CCC(N(Cc2cccc(-c3ccncc3)c2)C(=O)c2sc3c(F)ccc(F)c3c2Cl)CC1 (stereo not given): 1 (yes)
- O=C1c2c(O)cc(O)cc2O[C@H](c2cc(O)c(O)c(O)c2)[C@H]1O: 0 (no)
- Cc1cnc(Nc2cccc(CN3CCOCC3)c2)nc1Nc1cccc(S(=O)(=O)NC(C)(C)C)c1: 1 (yes)
- Nc1nccc(Oc2ccc(NC(=O)c3c[nH]cc(-c4ccc(F)cc4)c3=O)cc2F)c1Cl: 1 (yes)
- COc1ccc(/C=C\c2cc(OC)c(OC)c(OC)c2)cc1NC(=O)[C@H](N)CO: 1 (yes)

---

Assay: growth inhibition, single agent or in combination, cell-based, chromothripsis tumors, cisplatin or BGB combos (AID 1671449);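 further: cells exposed for 96 hours; 0% = vehicle DMSO and 100% = killing by high DMSO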
Conditions: LFS_MB_P medulloblastoma cells, measured here: combination with cisplatin, at 5 µM, stronger effect = higher value
Attribute: inhibition
QUANTITY_NAME: inhibition (%)

* O=c1cc(N2CCOCC2)oc2c(-c3cccc4c3sc3ccccc34)cccc12 | -29.6
* Nc1nc(OCc2cc(Br)cs2)c2[nH]cnc2n1 | 3.43
* COc1ccc(C(=O)CC2(O)C(=O)Nc3c(Cl)ccc(Cl)c32)cc1 (stereo unspecified) | 10.7
* COc1cc(C=O)c([N+](=O)[O-])cc1OC | 3.4
* N=C1CCCN1Cc1[nH]c(=O)[nH]c(=O)c1Cl | 0.237
* Nc1ccc(-c2ccc3ncc4ccc(=O)n(-c5cccc(C(F)(F)F)c5)c4c3c2)cn1 | 92.6
* O=C(CCCCCCNC(=O)c1cnc(N(c2ccccc2)c2ccccc2Cl)nc1)NO | 99.5
* Cc1ccc2nc(NCCN)c3ncc(C)n3c2c1 | -17.8
* Cc1ccc([N+](=O)[O-])cc1S(=O)(=O)N(C)/N=C/c1cnc2ccc(Br)cn12 | 118
* CN(C)C/C=C/C(=O)Nc1ccc(C(=O)Nc2cccc(Nc3ncc(Cl)c(-c4c[nH]c5ccccc45)n3)c2)cc1 | 89.6
* O=c1[nH]cnc2ccccc12 | -52.6

---

Experiment: viability loss in pontine glioma line – cell-based, SU-DIPG-XVII, MIPE5.0, CellTiter-Glo, qHTS, dose response (AID 1347060);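 on AC50: cells exposed to compound for 48 hours before viability readout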
Conditions: CellTiter-Glo ATP luminescence
Inconclusive results are not listed. The source made the active and inactive calls. The limit is not given here; nearly all actives have AC50 up to about 26 µM.
Outcome codes: class 1 for active, class 0 for inactive

* Nc1cccc(-c2cc3c(Oc4cccc(O)c4)ncnc3[nH]2)c1 | class 1
* Cc1[nH]c(/C=C2\C(=O)Nc3ccc(S(=O)(=O)N(C)c4cccc(Cl)c4)cc32)c(C)c1C(=O)N1CCN(C)CC1 | class 1
* COc1cccc2nc(-c3cccs3)nc(NN3C(=O)C=C(C)C3=O)c12 | class 1
* Cc1cccc(-c2[nH]c(C(C)(C)C)nc2-c2ccc3nccnc3c2)n1 | class 0
* Cc1cc(Nc2cc(N)ncn2)c(=O)n2c1C(=O)NC21CCCCC1 | class 0
* N#Cc1ccnc(N2C(=O)CC[C@H]2C(=O)N(c2cncc(F)c2)[C@H](C(=O)NC2CC(F)(F)C2)c2ccccc2Cl)c1 | class 0
* COc1cccc2cc(-c3nc(C4CCC(C(=O)O)CC4)n4ncnc(N)c34)[nH]c12 (stereo not drawn) | class 1
* CC[C@H](C)n1cc(C)c2c(C(=O)NCc3c(C)cc(C)[nH]c3=O)cc(-c3ccc(N4CCNCC4)nc3)cc21 | class 0
* CN1c2ccccc2C(=O)N2CCc3c([nH]c4ccccc34)C21 (stereo not drawn) | class 1
* Nc1ccn([C@@H]2O[C@H](CO)[C@@H](O)C2(F)F)c(=O)n1 | class 1
* C=CC(=O)Nc1cccc(Oc2nc(Nc3ccc(N4CCN(C)CC4)c(F)c3)nc3[nH]ccc23)c1 | class 1
* N#Cc1ccc(COC[C@H]2O[C@@H](n3c(NCc4ccc(Cl)c(Cl)c4)nc4c(N)ncnc43)[C@H](O)[C@@H]2O)cc1 | class 1
* C[N+](C)(C)CC(=O)O | class 0
* Cc1cccc(-c2[nH]c(C(C)(C)C)nc2-c2ccc3c(c2)OCO3)n1 | class 1
* CC[C@]12C=CCN3CC[C@@]4(c5cc([C@@]6(C(=O)OC)C[C@H]7C[C@@H](C(C)(F)F)CN(Cc8c6[nH]c6ccccc86)C7)c(OC)cc5N(C)[C@H]4[C@@](O)(C(=O)OC)[C@@H]1OC(C)=O)[C@@H]32 | class 1
* COc1ccc(OC)c(-c2nnc3ccc(-c4ccc(OC)c(O[C@@H]5CCOC5)c4)nn23)c1 | class 1
* O=C(Nc1ccc(OC(F)(F)Cl)cc1)c1cnc(N2CC[C@@H](O)C2)c(-c2ccn[nH]2)c1 | class 1
* COc1c(OCCCN2CCOCC2)ccc2c3n(c(=NC(=O)c4cnc(N)nc4)nc12)CCN3 | class 1

// data source = PubChem BioAssay
